TESTED ON: T1, His-tagged human GPC3 (human, UniProt P51654 25-559, limits assumed)
T1 construct: Captured on HIS1K sensors in the Octet assay; also called human GPC3 antigen; Glypican 3; not shown: His tag
T1 sequence (P51654 25-559 limits assumed): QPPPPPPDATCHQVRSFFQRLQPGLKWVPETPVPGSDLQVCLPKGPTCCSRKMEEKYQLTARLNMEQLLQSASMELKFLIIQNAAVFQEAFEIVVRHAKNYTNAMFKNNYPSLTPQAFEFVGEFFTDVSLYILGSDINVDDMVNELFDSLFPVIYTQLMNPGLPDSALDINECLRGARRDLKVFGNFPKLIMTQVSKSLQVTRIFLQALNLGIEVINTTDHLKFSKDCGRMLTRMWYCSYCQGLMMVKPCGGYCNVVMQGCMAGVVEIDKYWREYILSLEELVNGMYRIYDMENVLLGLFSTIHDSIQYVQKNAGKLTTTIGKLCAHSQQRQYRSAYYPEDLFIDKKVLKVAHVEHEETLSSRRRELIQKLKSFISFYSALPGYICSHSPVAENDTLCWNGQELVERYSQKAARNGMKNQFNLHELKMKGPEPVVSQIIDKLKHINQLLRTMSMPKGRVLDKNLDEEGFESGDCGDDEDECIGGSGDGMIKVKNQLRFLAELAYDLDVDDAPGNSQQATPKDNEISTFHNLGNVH
TEST SUMMARY: binding assay not named for this figure; human GPC3 per legend paragraph 61
pKd: −log10 of the molar value.

BINDER | pKd
XENP 23070 H1_L1.7 (antibody, human IgG1, kappa, V domains shown, VH WT, VL mutation (Kabat) G29K; also called [GPC3]H1_L1.7; VL G29K; copies: 2 + 2) VH: QVQLVQSGAEVKKPGASVKVSCKASGYTFTDYEMHWVRQAPGQGLEWMGALDPKTGDTAYSQKFQGRVTMTADKSISTAYMELSRLRSDDTAVYYCTRFYSYTYWGQGTLVTVSS VL: DVVMTQSPLSLPVTLGQPASISCRSSQSLVHSNKNTYLHWYQQRPGQSPRLLIYKVSNRFSGVPDRFSGSGSGTDFTLKISRVEAEDVGVYFCSQNTHVPPTFGSGTKLEIKR | 8.65
XENP 23064 H1_L1.1 (antibody, human IgG1, kappa, V domains shown, VH WT, VL mutation (Kabat) N28Q; also called [GPC3]H1_L1.1; VL N28Q; copies: 2 + 2) VH: QVQLVQSGAEVKKPGASVKVSCKASGYTFTDYEMHWVRQAPGQGLEWMGALDPKTGDTAYSQKFQGRVTMTADKSISTAYMELSRLRSDDTAVYYCTRFYSYTYWGQGTLVTVSS VL: DVVMTQSPLSLPVTLGQPASISCRSSQSLVHSQGNTYLHWYQQRPGQSPRLLIYKVSNRFSGVPDRFSGSGSGTDFTLKISRVEAEDVGVYFCSQNTHVPPTFGSGTKLEIKR | 7.55
XENP 23072 H1_L1.9 (antibody, human IgG1, kappa, V domains shown, VH WT, VL mutation (Kabat) N30Y; also called [GPC3]H1_L1.9; VL N30Y; copies: 2 + 2) VH: QVQLVQSGAEVKKPGASVKVSCKASGYTFTDYEMHWVRQAPGQGLEWMGALDPKTGDTAYSQKFQGRVTMTADKSISTAYMELSRLRSDDTAVYYCTRFYSYTYWGQGTLVTVSS VL: DVVMTQSPLSLPVTLGQPASISCRSSQSLVHSNGYTYLHWYQQRPGQSPRLLIYKVSNRFSGVPDRFSGSGSGTDFTLKISRVEAEDVGVYFCSQNTHVPPTFGSGTKLEIKR | 8.86
